- experiment: qHTS of pediatric cancer cell lines to identify multiple opportunities for drug repurposing: Confirmatory screen for U-2 OS cells (AID 1347122); note: nearly all actives have a fitted effect of over 65% in size
- conditionInfo: U-2 OS osteosarcoma cell viability; series mostly up to 45.9 µM
Inconclusive results are not listed. Active and inactive are the calls of the source. Calls come from the whole dose curve; as a rule, active = well fitted cell-killing curve with a large enough effect; inconclusive = small, poorly fitted or top-dose-only effect; inactive = no such curve, though single readings can be large or run the other way.
Possible outcomes: true for active, false for inactive

                                    compound  classlabel
 0  CCCC(=O)O[C@]1(C(=O)CO)CC[C@H]2[C@@H]3CCC4=CC(=O)CC[C@]4(C)[C@H]3[C@@H](O)C[C@@]21C       false
 1  CC(=O)OCC(=O)[C@@]1(O)[C@H](C)C[C@H]2[C@@H]3CCC4=CC(=O)C=C[C@]4(C)[C@@]3(F)[C@@H](O)C[C@@]21C        true
 2  CC(=O)Oc1ccc(C(c2ccc(OC(C)=O)cc2)c2ccccn2)cc1       false
 3  CCC(C(=O)OCCN(CC)CC)c1ccccc1 (stereo unspecified)       false
 4  CC(=O)OCC(=O)[C@@]1(OC(C)=O)[C@@H](C)C[C@H]2[C@@H]3C[C@H](F)C4=CC(=O)C=C[C@]4(C)[C@@]3(F)[C@@H](O)C[C@@]21C       false
 5  CC(=O)OCC(=O)[C@@]12OC(C)(C)O[C@@H]1C[C@H]1[C@@H]3C[C@H](F)C4=CC(=O)C=C[C@]4(C)[C@@]3(F)[C@@H](O)C[C@@]12C       false
 6  CC(=O)[C@H]1CC[C@H]2[C@@H]3C[C@H](C)C4=CC(=O)CC[C@]4(C)[C@H]3[C@@H](O)C[C@]12C        true
 7  CCCCC(CC)CN=C(N)NC(N)=NCCCCCCN=C(N)NC(N)=NCC(CC)CCCC (stereo unspecified)        true
 8  C[C@@H]1C[C@H]2[C@@H]3CCC4=CC(=O)C=C[C@]4(C)[C@@]3(F)[C@@H](O)C[C@]2(C)[C@H]1C(=O)CO       false
 9  C[C@H]1C[C@H]2[C@@H]3CCC4=CC(=O)C=C[C@]4(C)[C@@]3(Cl)[C@@H](O)C[C@]2(C)[C@@]1(O)C(=O)CO       false
10  CC1(C)O[C@@H]2C[C@H]3[C@@H]4C[C@H](F)C5=CC(=O)CC[C@]5(C)[C@H]4[C@@H](O)C[C@]3(C)[C@]2(C(=O)CO)O1       false
